# pIC50 per entry
Target: mouse FAP (Mus musculus, UniProt P97321)
Sequence (P97321 26-761): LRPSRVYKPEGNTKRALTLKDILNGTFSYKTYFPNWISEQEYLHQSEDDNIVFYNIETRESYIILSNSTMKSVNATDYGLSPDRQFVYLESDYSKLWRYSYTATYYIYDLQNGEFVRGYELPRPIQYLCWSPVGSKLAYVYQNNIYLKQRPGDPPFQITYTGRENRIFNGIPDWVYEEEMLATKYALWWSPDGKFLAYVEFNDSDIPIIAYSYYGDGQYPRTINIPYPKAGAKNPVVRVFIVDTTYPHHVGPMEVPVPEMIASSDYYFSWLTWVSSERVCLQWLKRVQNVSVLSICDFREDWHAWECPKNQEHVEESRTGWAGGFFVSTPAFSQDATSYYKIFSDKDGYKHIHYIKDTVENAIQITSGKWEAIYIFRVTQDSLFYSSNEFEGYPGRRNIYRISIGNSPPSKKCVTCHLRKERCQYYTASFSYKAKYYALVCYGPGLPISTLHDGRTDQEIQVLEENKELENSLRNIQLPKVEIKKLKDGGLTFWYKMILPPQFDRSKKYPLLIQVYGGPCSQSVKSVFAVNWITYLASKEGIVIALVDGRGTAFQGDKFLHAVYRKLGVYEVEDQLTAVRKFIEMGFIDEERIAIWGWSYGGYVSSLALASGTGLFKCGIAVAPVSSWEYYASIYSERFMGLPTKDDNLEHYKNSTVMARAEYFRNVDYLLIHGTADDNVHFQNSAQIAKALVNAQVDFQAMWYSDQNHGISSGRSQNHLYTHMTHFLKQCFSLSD
Counter-ions that a name gives are not always drawn. Starred links: 1 amine or outer side, 2 acyl side, 3 side chain; linkers in the order of their positions; H or OH if unused. Non-standard residues stand in square brackets, D forms with d. Residues, ends and D or L forms follow the SMILES beside them. Groups on a side chain read outwards from the residue. *: point of attachment. DOTA = O=C(O)CN1CCN(CC(=O)O)CCN(CC(=O)*)CCN(CC(=O)O)CC1; Piperazinyl(4-CH2COOH) = O=C(O)CN1CCN(*)CC1; AEF = NCCOc1ccc(C[C@H](N)C(=O)O)cc1; NMeF = CN[C@@H](Cc1ccccc1)C(=O)O; Ahp(2) = CCCCC[C@H](N)C(=O)O; Dab = NCC[C@H](N)C(=O)O; CO = O=C([*:1])[*:2]
Remember, pIC50 is on a log scale: it is -log10 of the molar concentration.

INSERT INTO assay_data (compound, recorded_number) VALUES
  ('CCCCC[C@@H]1NC(=O)[C@H](Cc2ccc(OCCNC(=O)CN3CCN(CC(=O)O)CCN(CC(=O)O)CCN(CC(=O)O)CC3)cc2)NC(=O)[C@H](Cc2ccccc2)N(C)C(=O)CNC(=O)CNC(=O)[C@H]2CCCN2C(=O)[C@H](CC(=O)O)NC(=O)[C@H](CCCCNC(=O)N2CCN(CC(=O)O)CC2)NC(=O)CNC(=O)[C@H](Cc2c[nH]c3ccccc23)NC1=O [Example B3] (cyclo([AEF](DOTA)[Ahp(2)]WGK([CO-Piperazinyl(4-CH2COOH)])D[dP]GG[NMeF]))', 10.04),
  ('CCCCC[C@@H]1NC(=O)[C@H](Cc2ccc(O)cc2)NC(=O)[C@H](Cc2ccccc2)N(C)C(=O)CNC(=O)CNC(=O)[C@H]2CCCN2C(=O)[C@H](CC(=O)O)NC(=O)[C@H](CCNC(=O)N2CCN(CC(=O)O)CC2)NC(=O)CNC(=O)[C@H](Cc2c[nH]c3ccccc23)NC1=O [Example A5] (cyclo([Ahp(2)]WG[Dab]([CO-Piperazinyl(4-CH2COOH)])D[dP]GG[NMeF]Y))', 9.30);

For the next question, use this compound.
Inquiry: Requested read-out: pIC50. Entry: CCCCC[C@@H]1NC(=O)[C@H](Cc2ccc(OCCN)cc2)NC(=O)[C@H](Cc2ccccc2)N(C)C(=O)CNC(=O)CNC(=O)[C@H]2CCCN2C(=O)[C@H](CC(=O)O)NC(=O)[C@H](CCCCNC(=O)N2CCN(CC(=O)O)CC2)NC(=O)CNC(=O)[C@H](Cc2c[nH]c3ccccc23)NC1=O [Example A6, TFA salt] (cyclo([AEF][Ahp(2)]WGK([CO-Piperazinyl(4-CH2COOH)])D[dP]GG[NMeF]))
Reply text: 9.75
